Values from ChEMBL document CHEMBL5291721

Recorded below: AC50, system Gamma-aminobutyric acid receptor subunit alpha-1 (Rattus norvegicus, UniProt P62813). Also: assay procedure not described here.

Answered examples (4):
- CN(C)CC[C@@H](c1ccc(Cl)cc1)c1ccccn1: > 30 µM
- CC(N)C12CC3CC(CC(C3)C1)C2 (stereo not given): > 10 µM
- Cc1cc(C(C)(C)C)cc(C)c1CC1=NCCN1: > 30 µM
- CC1OC2(CS1)CN1CCC2CC1 (stereo not given): > 10 µM

Attention now turns to another entry.
INPUT: What value of measured AC50 is listed for COc1ccc2nc3cc(Cl)ccc3c(Nc3cc(CN4CCCC4)c(O)c(CN4CCCC4)c3)c2n1 ?
OUTPUT: > 30 µM

----------
Documented AC50 across a set of compounds
target: Bile salt export pump (Homo sapiens); format: functional; also: assay procedure not described here
Sequence (O95342 whole entry): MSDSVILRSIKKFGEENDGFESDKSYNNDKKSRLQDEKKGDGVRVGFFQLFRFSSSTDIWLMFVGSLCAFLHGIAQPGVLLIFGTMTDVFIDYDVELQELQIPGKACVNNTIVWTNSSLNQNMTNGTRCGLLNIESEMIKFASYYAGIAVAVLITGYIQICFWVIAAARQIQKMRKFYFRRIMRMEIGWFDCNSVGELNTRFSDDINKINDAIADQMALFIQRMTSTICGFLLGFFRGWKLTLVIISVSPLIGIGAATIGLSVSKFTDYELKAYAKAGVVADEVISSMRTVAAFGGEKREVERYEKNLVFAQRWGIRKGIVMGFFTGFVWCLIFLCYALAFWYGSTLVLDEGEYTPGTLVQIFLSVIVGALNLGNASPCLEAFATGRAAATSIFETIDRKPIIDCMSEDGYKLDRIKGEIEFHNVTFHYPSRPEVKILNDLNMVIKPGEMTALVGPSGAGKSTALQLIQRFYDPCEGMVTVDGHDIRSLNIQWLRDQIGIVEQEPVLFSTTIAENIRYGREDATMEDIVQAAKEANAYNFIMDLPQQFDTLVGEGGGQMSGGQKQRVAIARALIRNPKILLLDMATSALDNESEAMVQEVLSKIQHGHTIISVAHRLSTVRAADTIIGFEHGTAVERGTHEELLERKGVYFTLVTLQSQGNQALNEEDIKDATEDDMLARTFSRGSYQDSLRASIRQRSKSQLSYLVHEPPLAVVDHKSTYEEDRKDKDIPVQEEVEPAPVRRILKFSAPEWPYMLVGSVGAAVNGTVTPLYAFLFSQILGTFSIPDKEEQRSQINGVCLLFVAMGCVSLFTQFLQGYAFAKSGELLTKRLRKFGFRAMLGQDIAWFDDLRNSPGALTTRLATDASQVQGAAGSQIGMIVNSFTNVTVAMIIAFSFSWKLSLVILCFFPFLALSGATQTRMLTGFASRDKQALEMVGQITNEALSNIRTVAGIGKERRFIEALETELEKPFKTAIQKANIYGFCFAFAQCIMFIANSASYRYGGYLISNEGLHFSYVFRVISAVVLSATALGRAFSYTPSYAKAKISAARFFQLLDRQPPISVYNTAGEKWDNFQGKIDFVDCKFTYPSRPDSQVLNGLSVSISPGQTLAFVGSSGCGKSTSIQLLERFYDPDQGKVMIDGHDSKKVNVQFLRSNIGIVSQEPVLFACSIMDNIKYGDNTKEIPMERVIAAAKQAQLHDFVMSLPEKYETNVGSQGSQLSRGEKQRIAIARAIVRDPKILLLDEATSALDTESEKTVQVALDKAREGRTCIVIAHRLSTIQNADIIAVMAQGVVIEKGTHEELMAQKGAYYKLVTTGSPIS
Could you give me the number in µM? Just the number is fine.

Before answering, review these 3 worked examples.
• CN1C[C@H](C(=O)N[C@]2(C)O[C@@]3(O)[C@@H]4CCCN4C(=O)[C@H](Cc4ccccc4)N3C2=O)C=C2c3cccc4[nH]cc(c34)C[C@H]21 = 25
• COc1ccccc1Oc1c(NS(=O)(=O)c2ccc(C(C)(C)C)cc2)nc(-c2ncccn2)nc1OCCO = 18
• O=C1CN(/N=C/c2ccc(-c3ccc([N+](=O)[O-])cc3)o2)C(O)=N1 = 35

INPUT: Return reported AC50; argument: C[C@@H]1C[C@H]2[C@@H]3CCC4=CC(=O)C=C[C@]4(C)[C@@]3(Cl)[C@@H](O)C[C@]2(C)[C@@]1(OC(=O)c1ccco1)C(=O)CCl [MOMETASONE FUROATE]
OUTPUT: 2.4

----------
target: UniProt:Q14432; assay type: functional
Sequence (Q14432 whole entry): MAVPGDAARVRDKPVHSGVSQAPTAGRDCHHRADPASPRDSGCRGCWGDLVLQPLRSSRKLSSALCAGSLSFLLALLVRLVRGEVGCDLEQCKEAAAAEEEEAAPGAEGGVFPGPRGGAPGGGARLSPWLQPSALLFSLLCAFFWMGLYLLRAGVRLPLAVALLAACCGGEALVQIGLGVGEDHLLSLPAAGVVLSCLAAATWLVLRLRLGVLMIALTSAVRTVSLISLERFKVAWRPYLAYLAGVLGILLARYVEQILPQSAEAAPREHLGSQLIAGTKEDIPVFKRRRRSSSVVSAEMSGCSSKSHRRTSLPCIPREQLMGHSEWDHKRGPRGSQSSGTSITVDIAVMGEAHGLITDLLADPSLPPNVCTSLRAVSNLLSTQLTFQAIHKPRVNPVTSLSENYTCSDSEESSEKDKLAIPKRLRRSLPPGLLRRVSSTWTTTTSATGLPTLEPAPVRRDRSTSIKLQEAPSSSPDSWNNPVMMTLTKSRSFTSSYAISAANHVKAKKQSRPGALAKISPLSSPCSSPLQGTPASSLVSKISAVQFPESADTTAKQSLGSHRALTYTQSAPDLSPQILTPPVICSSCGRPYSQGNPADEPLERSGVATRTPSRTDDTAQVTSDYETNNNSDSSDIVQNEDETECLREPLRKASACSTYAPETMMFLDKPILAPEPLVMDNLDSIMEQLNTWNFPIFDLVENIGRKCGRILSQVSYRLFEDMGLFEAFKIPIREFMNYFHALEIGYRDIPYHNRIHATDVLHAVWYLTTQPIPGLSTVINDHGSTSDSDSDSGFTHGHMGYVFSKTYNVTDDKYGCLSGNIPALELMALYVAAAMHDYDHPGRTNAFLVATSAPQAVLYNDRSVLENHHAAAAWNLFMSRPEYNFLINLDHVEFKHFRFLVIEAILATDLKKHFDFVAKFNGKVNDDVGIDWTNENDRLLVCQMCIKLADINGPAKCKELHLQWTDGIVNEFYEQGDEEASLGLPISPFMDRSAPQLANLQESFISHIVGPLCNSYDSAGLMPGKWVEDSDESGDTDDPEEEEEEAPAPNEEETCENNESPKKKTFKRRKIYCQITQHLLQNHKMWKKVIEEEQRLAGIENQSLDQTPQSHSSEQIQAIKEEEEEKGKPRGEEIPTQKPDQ
parameter: AC50

Example results:
- O=C(O)CCNC(=O)c1ccccc1: > 30 µM
- CC1=C(C)C(=O)C(C(CCCCCC(=O)O)c2ccccc2)=C(C)C1=O (stereo unspecified): 25 µM
- CCC1(c2ccccc2)CCC(=O)NC1=O (stereo unspecified) [GLUTETHIMIDE]: > 30 µM
- COc1cc2nccc(Oc3ccc(NC(=O)C4(C(=O)Nc5ccc(F)cc5)CC4)cc3)c2cc1OC [CABOZANTINIB]: > 30 µM
- C/C(=C\C(=O)OCCCCCCCCC(=O)O)C[C@@H]1OC[C@H](C[C@@H]2O[C@H]2[C@@H](C)[C@H](C)O)[C@@H](O)[C@H]1O: > 30 µM

INPUT: API: value(readout= AC50, system= UniProt:Q14432, query= OC[C@H]1O[C@@](CO)(O[C@H]2O[C@H](CO)[C@@H](O)[C@H](O)[C@H]2O)[C@@H](O)[C@@H]1O )
OUTPUT: > 30 µM

INPUT: Give recorded AC50 with UniProt:Q14432 for the following compound: COc1ccccc1Oc1c(NS(=O)(=O)c2ccc(C(C)(C)C)cc2)nc(-c2ncccn2)nc1OCCO
OUTPUT: > 30 µM

INPUT: Under UniProt:Q14432: AC50 value of CCC(=O)O[C@H]1CC[C@H]2[C@@H]3CCC4=CC(=O)CC[C@]4(C)[C@H]3CC[C@]12C [TESTOSTERONE PROPIONATE] ?
OUTPUT: > 10 µM

INPUT: API: value(readout= AC50, system= UniProt:Q14432, query= O=C1CCc2cc(OCCCCc3nnnn3C3CCCCC3)ccc2N1 )
OUTPUT: 0.424 µM

INPUT: Item: COc1ccc2nc3cc(Cl)ccc3c(Nc3cc(CN4CCCC4)c(O)c(CN4CCCC4)c3)c2n1 Test system: UniProt:Q14432 Read-out: AC50 Value: ?
OUTPUT: 5.7 µM

INPUT: Field: AC50 (UniProt:Q14432). Entry: O=C1C(CC[S+]([O-])c2ccccc2)C(=O)N(c2ccccc2)N1c1ccccc1 (stereo unspecified)
OUTPUT: > 30 µM

INPUT: Identify the measured AC50 of C#C[C@]1(O)CC[C@H]2[C@@H]3CCC4=CC(=O)CC[C@@H]4[C@H]3C(=C)C[C@@]21CC for UniProt:Q14432.
OUTPUT: > 30 µM

INPUT: Form: Entry = CC(=O)O[C@]1(C(C)=O)CC[C@H]2[C@@H]3C=C(C)C4=CC(=O)CC[C@@H]4[C@H]3CC[C@@]21C [NOMEGESTROL ACETATE] | System = UniProt:Q14432 | AC50 = ____
OUTPUT: > 30 µM

INPUT: Lab note: need AC50 with UniProt:Q14432 for entry COc1cc2nc(N3CCN(C(=O)C4CCCO4)CC3)nc(N)c2cc1OC (stereo unspecified) , please look it up.
OUTPUT: > 30 µM

INPUT: Which measured AC50 belongs to Nc1ncn([C@H]2C[C@H](O)[C@@H](CO)O2)c(=O)n1 , tested on UniProt:Q14432?
OUTPUT: > 30 µM

INPUT: Form field: AC50 recorded for C[C@]12C=CC(=O)N[C@@H]1CC[C@@H]1[C@@H]2CC[C@]2(C)[C@@H](C(=O)Nc3cc(C(F)(F)F)ccc3C(F)(F)F)CC[C@@H]12 [DUTASTERIDE] with UniProt:Q14432 (enter value)
OUTPUT: > 30 µM

----------
Target: B2 bradykinin receptor (Homo sapiens); also: assay procedure not described here
Sequence (P30411 whole entry): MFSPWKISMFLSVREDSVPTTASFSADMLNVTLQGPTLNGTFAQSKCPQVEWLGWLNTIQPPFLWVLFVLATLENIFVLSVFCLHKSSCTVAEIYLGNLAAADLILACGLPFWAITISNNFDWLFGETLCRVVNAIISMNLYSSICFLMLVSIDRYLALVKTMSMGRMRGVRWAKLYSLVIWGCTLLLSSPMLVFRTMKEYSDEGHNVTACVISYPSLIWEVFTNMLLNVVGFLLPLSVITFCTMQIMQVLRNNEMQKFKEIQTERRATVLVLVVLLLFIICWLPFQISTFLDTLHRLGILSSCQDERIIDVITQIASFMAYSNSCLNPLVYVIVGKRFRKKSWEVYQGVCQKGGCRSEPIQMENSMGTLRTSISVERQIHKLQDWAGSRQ
parameter: AC50

Recorded AC50, per entry:
- O=C(O)c1cn(C2CC2)c2cc(N3CCNCC3)c(F)cc2c1=O: > 30 µM
- Nc1ccc(S(=O)(=O)Nc2nccs2)cc1: > 30 µM
- C[C@@H](NCCCc1cccc(C(F)(F)F)c1)c1cccc2ccccc12: > 3 µM
- CC(C)COCC(CN(Cc1ccccc1)c1ccccc1)N1CCCC1 (stereo not given): > 30 µM
- NC(=O)CN1CCCC1=O: > 30 µM
- Cc1cc2cc3c(C)cc(=O)oc3c(C)c2o1: > 10 µM

Next compound, please.
INPUT: Give its AC50 value. Item: Nc1ncn([C@H]2C[C@H](O)[C@@H](CO)O2)c(=O)n1
OUTPUT: > 30 µM

----------
biological target: Beta-1 adrenergic receptor (Homo sapiens, UniProt P08588); type: functional; also: assay procedure not described here
Sequence (P08588 whole entry): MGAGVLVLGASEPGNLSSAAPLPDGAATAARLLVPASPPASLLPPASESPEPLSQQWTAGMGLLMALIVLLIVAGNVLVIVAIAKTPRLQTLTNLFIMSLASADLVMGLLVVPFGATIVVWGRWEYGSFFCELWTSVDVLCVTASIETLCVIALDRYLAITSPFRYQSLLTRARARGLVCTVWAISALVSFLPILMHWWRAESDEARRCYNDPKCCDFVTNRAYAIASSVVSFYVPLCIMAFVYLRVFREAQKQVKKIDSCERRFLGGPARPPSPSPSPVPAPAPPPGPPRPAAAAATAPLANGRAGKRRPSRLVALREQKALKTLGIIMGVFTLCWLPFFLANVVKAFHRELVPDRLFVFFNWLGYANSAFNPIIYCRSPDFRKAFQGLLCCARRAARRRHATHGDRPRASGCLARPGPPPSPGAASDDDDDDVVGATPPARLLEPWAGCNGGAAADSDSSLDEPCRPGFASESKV
Listed below: AC50 values for each entry.

- CN1CCC(=C2c3ccccc3CCc3cccnc32)CC1 [AZATADINE]: > 10 µM
- CC(C)N(CCC(C(N)=O)(c1ccccc1)c1ccccn1)C(C)C (configuration not stated) [DISOPYRAMIDE]: > 30 µM
- C[N@+]1(CCF)[C@@H]2CC[C@H]1C[C@@H](OC(=O)C(O)(c1ccccc1)c1ccccc1)C2: > 30 µM

INPUT: # query: AC50 of entry Clc1ccc2c(N3CCN(CCCN4CCN(c5ccnc6cc(Cl)ccc56)CC4)CC3)ccnc2c1 [PIPERAQUINE]
OUTPUT: > 30 µM

INPUT: // query AC50 value for entry CC1=C(C)C(=O)C(C(CCCCCC(=O)O)c2ccccc2)=C(C)C1=O (configuration not stated) [SERATRODAST]
OUTPUT: > 30 µM

INPUT: Fill blank: measured AC50 of the compound O=C(O)CCNC(=O)c1ccccc1 [BETAMIPRON] is ____.
OUTPUT: > 30 µM

INPUT: Data request, read-out AC50, for C[C@H](CCC(=O)O)[C@H]1CC[C@H]2[C@@H]3[C@@H](O)C[C@@H]4C[C@H](O)CC[C@]4(C)[C@H]3CC[C@]12C [URSODIOL]
OUTPUT: > 30 µM

----------
Parameter: AC50. Scope: all listed entries.
target: Gamma-aminobutyric acid receptor subunit alpha-1 (Rattus norvegicus, UniProt P62813); also: assay procedure not described here
Sequence (P62813 whole entry): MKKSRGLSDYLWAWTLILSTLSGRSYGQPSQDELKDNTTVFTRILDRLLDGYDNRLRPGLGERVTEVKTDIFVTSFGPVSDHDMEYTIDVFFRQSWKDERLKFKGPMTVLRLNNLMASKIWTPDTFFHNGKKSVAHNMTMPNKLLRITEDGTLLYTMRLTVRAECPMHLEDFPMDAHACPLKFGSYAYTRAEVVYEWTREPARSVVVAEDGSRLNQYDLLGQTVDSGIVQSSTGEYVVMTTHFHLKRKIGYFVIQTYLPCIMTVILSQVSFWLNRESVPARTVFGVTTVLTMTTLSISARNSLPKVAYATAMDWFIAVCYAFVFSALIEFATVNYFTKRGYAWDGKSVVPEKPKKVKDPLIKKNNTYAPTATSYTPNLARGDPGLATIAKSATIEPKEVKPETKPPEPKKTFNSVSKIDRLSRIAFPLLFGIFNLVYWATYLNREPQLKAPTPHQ

Take a look at these entries with their results.
• CC(=O)O[C@H](CC(=O)[O-])C[N+](C)(C)C = > 30 µM
• NC(=O)CN1CCCC1=O = > 30 µM
• Clc1ccc(C(Cn2ccnc2)OCc2ccsc2Cl)c(Cl)c1 (stereo not given) = > 30 µM
• C#C[C@]1(O)CC[C@H]2[C@@H]3CCC4=CC(=O)CC[C@@H]4[C@H]3C(=C)C[C@@]21CC = > 30 µM
• CC(N)C(O)c1ccccc1 (stereo not given) = > 10 µM

INPUT: Given the entry CC(CCc1ccc(O)cc1)NCCc1ccc(O)c(O)c1 (stereo not given) , report its measured AC50.
OUTPUT: > 30 µM

INPUT: Which AC50 is reported for this compound? CCCN(CCC)C(=O)Cc1c(-c2ccc(Cl)cc2)nc2ccc(Cl)cn12
OUTPUT: > 30 µM

INPUT: Any idea what AC50 was measured for CC(C(=O)O)c1ccc2c(c1)[nH]c1ccc(Cl)cc12 (stereo not given) ?
OUTPUT: > 10 µM

INPUT: Quick one: AC50 for CCCN[C@H]1CCc2nc(N)sc2C1 [PRAMIPEXOLE] ?
OUTPUT: > 10 µM

INPUT: Which AC50 is reported for this compound? CN1CCC(=C2c3ccccc3CCc3cccnc32)CC1
OUTPUT: > 10 µM
